Target: T1, DDX21Fl monomer (human, UniProt Q9NR30 1-783, L611R;A612R;A613R;A614R;L615R;A616R)
T1 sequence: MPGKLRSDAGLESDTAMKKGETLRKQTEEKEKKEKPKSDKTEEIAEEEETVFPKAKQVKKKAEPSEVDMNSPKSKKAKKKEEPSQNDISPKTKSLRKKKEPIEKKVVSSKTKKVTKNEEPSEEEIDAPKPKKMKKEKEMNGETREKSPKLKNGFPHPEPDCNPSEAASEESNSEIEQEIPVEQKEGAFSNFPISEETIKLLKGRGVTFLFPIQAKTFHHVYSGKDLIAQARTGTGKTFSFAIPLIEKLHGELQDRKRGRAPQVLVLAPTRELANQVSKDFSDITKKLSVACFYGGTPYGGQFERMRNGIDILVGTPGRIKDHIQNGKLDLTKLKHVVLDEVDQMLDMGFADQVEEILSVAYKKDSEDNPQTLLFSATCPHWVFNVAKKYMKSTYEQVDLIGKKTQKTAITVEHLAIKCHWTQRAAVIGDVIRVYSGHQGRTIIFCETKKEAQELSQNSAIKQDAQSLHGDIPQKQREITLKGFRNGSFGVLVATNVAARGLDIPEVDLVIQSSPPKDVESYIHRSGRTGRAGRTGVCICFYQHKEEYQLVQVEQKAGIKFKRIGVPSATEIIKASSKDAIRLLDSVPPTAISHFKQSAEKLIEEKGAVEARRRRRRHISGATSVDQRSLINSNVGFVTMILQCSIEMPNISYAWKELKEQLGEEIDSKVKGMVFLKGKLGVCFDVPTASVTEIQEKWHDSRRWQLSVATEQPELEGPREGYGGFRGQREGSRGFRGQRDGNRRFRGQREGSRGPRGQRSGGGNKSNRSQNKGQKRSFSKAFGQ
Test: fluorescence polarization; FP: 50 mM Tris pH 7.5, 50 mM KCl, 5 mM MgCl2, no ATP; Hill-slope fit; temperature not given in the material
Conditions: protein: recombinant; label: 5'-FAM; single strand
Measure name: pKd
Scale note: pKd = -log10(concentration in M).

What value of pKd has been recorded for this entry: GUUUCGGAUCGACGC (ssRNA) [15-mer ssRNA] 7.52
